Cited source for all entries: ChEMBL document CHEMBL4339191

# SYSTEM: UniProtKB P42330
# Sequence (P42330 whole entry): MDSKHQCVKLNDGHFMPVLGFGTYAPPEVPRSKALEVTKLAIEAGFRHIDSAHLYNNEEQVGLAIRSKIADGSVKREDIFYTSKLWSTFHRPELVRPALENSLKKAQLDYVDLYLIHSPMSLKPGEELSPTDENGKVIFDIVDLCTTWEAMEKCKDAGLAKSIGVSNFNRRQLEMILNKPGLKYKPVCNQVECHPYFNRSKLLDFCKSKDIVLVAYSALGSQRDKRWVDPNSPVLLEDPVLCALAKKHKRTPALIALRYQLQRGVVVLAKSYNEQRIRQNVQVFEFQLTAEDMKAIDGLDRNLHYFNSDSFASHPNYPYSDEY
pKi: −log10 of the molar value.
ENDPOINT LABEL: pKi

[[record]]
mol = "CC/C=C\\C[C@H]1C(=O)CC[C@@H]1CC(=O)O"
system = "UniProtKB P42330"
value_observed = 4.62

